Hello, the source for this data is ChEMBL document CHEMBL4689842, in case you need it.

test system: Fibroblast; test: Multiplex assay against human fibroblast; format: toxicity, cell-based; conditions: 48 h, 1 µM, compound concentration 1 uM, replicate 1
Collected Population Mitochondria Different-Phenotype (%) values appear next to each entry.
# value in %; strip the unit string

Some compounds with known Population Mitochondria Different-Phenotype (%) results, for comparison:
>>> df
                                   compound  reading
0  C=CC(=O)Nc1cc(-n2c(=O)ccc3cnc4ccc(-c5ccc(NS(C)(=O)=O)cc5)cc4c32)ccc1C        3
1  CC(Cc1ccc(O)c(O)c1)C(C)Cc1ccc(O)c(O)c1 (stereo not drawn) [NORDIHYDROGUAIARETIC ACID]        0
2  N#CCNC(=O)c1ccc(-c2ccnc(Nc3ccc(N4CCOCC4)cc3)n2)cc1        1

Memo: CCCc1cc(C)[nH]c(=O)c1CNC(=O)c1cc(-c2ccc(N3CCN(C(C)C)CC3)nc2)cc2c1cnn2C(C)C , reported Population Mitochondria Different-Phenotype (%): 23
